# test-name: Toxicity liver stage against HepG2, at 10uM
# Format: cell-based
# Design: test concentration 10 uM, cell line HepG2-A16-CD81EGFP
# condition-info: human, HepG2-A16-CD81EGFP cells; read-out: INHIBITION
I'd be grateful if you could share measured cytotoxicity at 10 µM for these entries.
Write the number in % without appending the unit.

Query: Note cytotoxicity at 10 µM for the molecule shown: CC(C)CN1CC(C(=O)NCc2cccnc2-n2cccn2)CC1=O (stereo unspecified)
Response: -1.04

Query: # return recorded cytotoxicity at 10 µM for input COc1cccc2c1OCC(C(=O)NCc1ncc3c(n1)CCC3)C2 (stereo unspecified)
Response: -8.51

Query: Fill in reported cytotoxicity at 10 µM for this entry: Cc1cc(C)n(NC(=O)c2ccc(Cl)cc2Cl)c(=O)c1
Response: -7.05

Query: Dear colleague, please send me the reported cytotoxicity at 10 µM for c1cncc(C[C@@H]2CC[C@H](CN3CCCOCC3)O2)c1 when you can.
Response: 2.13

Query: Please look at this molecule and report its cytotoxicity at 10 µM: CC1c2cc(F)ccc2CCN1CCCS(=O)(=O)C(C)C (stereo unspecified)
Response: 9.15

Query: Please look at this molecule and report its cytotoxicity at 10 µM: CCc1nsc(N2CCn3c(nnc3C(F)(F)F)C2)n1
Response: -0.657
